System: MDA-MB-435 melanoma
experiment.description: NCI-60 one-dose screen, 48 h (100 = growth as untreated, 0 = no growth, -100 = all killed)
setup.conditions: 10 µM unless noted
Compounds without any hit were thinned out: in the full panel of roughly 83,000, 20% have a hit.
recorded.endpoint: growth (%)
Dear colleague, please return just the value in %, with no unit written.

Sample records with growth:
COc1ccc(/C=C2\Oc3cc(OCCCN4CCCCC4)ccc3C2=O)cc1OC: 100
Cc1c(C(=O)NCCC(=O)NO)sc2ncnc(Nc3ccc(F)c(Cl)c3)c12: 102
CCCCC[n+]1ccc(SCC(=O)N(C)c2ccc(Oc3ccccc3)cc2)c2ccccc21: 98.1

Ask | Given the entry Cc1cccc(C)c1N=c1oc2ccc(Cl)cc2nc1-c1ccccc1O , report its measured growth.
Reply | 99.3

Ask | Now consider O=C1Nc2cc(Cl)ccc2/C1=C\c1c(-c2ccc(F)cc2)nc2ccccn12 and answer again.
Reply | -55

Ask | Now consider COc1cc2nc(-c3ccc(C(F)(F)F)cc3)cc(OCCN3CCCCC3)c2cc1OC and answer again.
Reply | 90.5

Ask | Now consider CCN1C(=O)N(CC)C2Nn3c(s/c(=C\c4ccc(OC)cc4)c3=O)=NC21 (stereo not given) and answer again.
Reply | -26.9

Ask | Now consider NC(=O)CSSCC(N)=O and answer again.
Reply | 91.6

Ask | Now consider N#CC(C(=O)/C(=N/NC(=O)c1ccccc1O)C(C#N)c1ccccc1)c1ccccc1 (stereo not given) and answer again.
Reply | 24.1

Ask | Now consider NS(=O)(=O)c1ccc(CCN2C(=O)C=CC2=O)cc1 and answer again.
Reply | 108

Ask | Now consider O=C1Nc2ccccc2/C1=C\c1c(-c2ccccc2)nc2ccccn12 and answer again.
Reply | -42

Ask | Now consider N#Cc1c(NC(=O)NCc2ccccc2)sc2c1CCCC2 and answer again.
Reply | -35.3

Ask | Now consider O=C(/C(=C\c1ccc([N+](=O)[O-])cc1)S(=O)Cc1ccc(F)cc1)c1ccc(F)cc1 (stereo not given) and answer again.
Reply | 53.7

Ask | Now consider Cc1ccc(NC(=O)Cc2ccc(/C=C/C(=O)c3ncc[nH]3)cc2)cc1 and answer again.
Reply | 28.7

* * *

System: MALME-3M melanoma
experiment.description: NCI-60 one-dose screen, 48 h
setup.conditions: 10 µM unless noted
This is part of a sample that, as a whole, favours compounds with a hit. Of some 83,000 tested, about 20% had one in any assay. Active and inactive are the calls of the source. The calls were made as follows: active = growth percent below 10; inactive = the rest.
Parameter call: string, one of t = active, f = inactive

Nc1c(C(=O)Nc2ccnc3ccccc23)sc2nc3c(cc12)CN(Cc1ccccc1)CC3: f
Cc1cc(Cl)nc(N(CCNc2ccnc3cc(Cl)ccc23)Cc2ccccn2)n1: f
O=C1Nc2cc(-c3cccc([N+](=O)[O-])c3)ccc2/C1=C/c1ccc[nH]1: f

Ask | Hi, sorry to bother you, what did the test record for N#C/C(=C\c1cccc(C#N)c1)c1ccccc1 ?
Reply | f

Ask | Now consider COC(=O)c1ccc2c(c1)[n+](=O)c(C(C)=O)c(C(F)(F)F)n2[O-] and answer again.
Reply | t

Ask | Now consider COc1ccc2c(c1)oc1c(C)c3c(c(C)c12)C(=O)N(CCN1CCOCC1)C3=O and answer again.
Reply | f

Ask | Now consider O=[N+]([O-])CC(c1ccccc1)c1c[nH]c2ccccc12 (stereo unspecified) and answer again.
Reply | f

Ask | Now consider COc1ccccc1NC(=O)C1CC(c2ccc(F)cc2)=NO1 (stereo unspecified) and answer again.
Reply | f

Ask | Now consider CCOC(=O)C1=C(CCl)NC(=O)NC1c1ccc2c(c1)OCO2 (stereo unspecified) and answer again.
Reply | f

Ask | Now consider Cc1ccc(NS(=O)(=O)c2ccc(-c3cnc(C4CC4)o3)cc2)cc1C(F)(F)F and answer again.
Reply | f

Ask | Now consider Clc1ccc(-c2ccc(CNCC3CCNCC3)o2)c(-c2ccccc2)c1 and answer again.
Reply | t

Ask | Now consider O=[N+]([O-])c1ccc(NC(=S)N/N=C/c2cc3ccccc3n3nnnc23)cc1 and answer again.
Reply | f

Ask | Now consider CC(=O)c1ccc(NS(=O)(=O)c2cccc(C(=O)Nc3ccc(Br)cc3)c2)cc1 and answer again.
Reply | f

Ask | Now consider CCCCCCCCO/N=C\c1c2c(O)c3c(O)c(C)c4c(c3c1O)C(=O)C(C)(O/C=C\C(OC)C(C)C(OC(C)=O)C(C)C(O)C(C)C(O)C(C)/C=C\C=C(\C)C(=O)N2)O4 (stereo unspecified) and answer again.
Reply | f

Ask | Now consider O=C(CCN1CCCC1)Nc1ccc2c(NCCCc3ccccc3)c3ccccc3nc2c1 and answer again.
Reply | t

Ask | Now consider Cc1ccc(S(=O)(=O)NNC(=O)/C(=C\c2ccc(Cl)cc2)c2nc3ccccc3s2)cc1 and answer again.
Reply | f

Ask | Now consider O=C1c2c(c3c4cccc(F)c4[nH]c3c3ccc4ccccc4c23)C(=O)N1O and answer again.
Reply | f

Ask | Now consider Cc1c2cc[nH]c(=O)c2c(C)c2c1[nH]c1cc(OCCN3CCN(C)CC3)ccc12 and answer again.
Reply | t

Ask | Now consider COc1cc2c(c(OC)c1OC)-c1ccc(NNC(=S)N(Cc3cccc(C[N+](Cc4cccc(CNC56CC7CC(CC(C7)C5)C6)c4)(Cc4cccc(CNC56CC7CC(CC(C7)C5)C6)c4)Cc4cccc(CN(C(=S)NNc5ccc6c(cc5=O)[C@@H](NC(C)=O)CCc5cc(OC)c(OC)c(OC)c5-6)C56CC7CC(CC(C7)C5)C6)c4)c3)C34CC5CC(CC(C5)C3)C4)c(=O)cc1[C@@H](NC(C)=O)CC2 (stereo partly specified) and answer again.
Reply | t

Ask | Now consider O=C(O)c1ccc2c(c1)C(=O)N(Cc1ccccc1)C2=O and answer again.
Reply | f

* * *

Test system: A549/ATCC NSCLC
experiment.description: NCI-60 one-dose screen, 48 h (100 = growth as untreated, 0 = no growth, -100 = all killed)
setup.conditions: 10 µM unless noted
About 83,000 compounds went through this panel and 20% of them were active in at least one assay; those are over-represented in the sample as a whole. Calls of active or inactive are those of the source. How the source made its calls: active means growth percent below 10; inactive means the rest.
recorded.endpoint: growth

Sample records with growth:
N#CC1=C(N)Oc2c(cnn2-c2ccc([N+](=O)[O-])cc2[N+](=O)[O-])C1c1ccccc1 (stereo not given): 103% (inactive)
Nc1c(C(=O)Nc2cccc3cnccc23)sc2nc3c(cc12)CN(Cc1ccccc1)CC3: 107% (inactive)
COc1c(Cl)c2c(c(OC)c1OC)-c1ccc(SC)c(=O)cc1[C@@H](NC(=O)OCC(F)(F)F)CC2: 22.2% (inactive)
O=C1/C=C/[C@@H](O)[C@@H]2C[C@@H](O)C[C@H]2/C=C/CCC[C@H](CCc2cccc3ccccc23)O1: 19.3% (inactive)

Ask | Given the entry NS(=O)(=O)c1ccc(CCN2C(=O)C=CC2=O)cc1 , report its measured growth.
Reply | 104% (inactive)

* * *

Test system: UO-31 renal
experiment.description: NCI-60 one-dose screen, 48 h
setup.conditions: 10 µM unless noted
This is part of a sample that, as a whole, favours compounds with a hit. Of some 83,000 tested, about 20% had one in any assay. The source made the active and inactive calls. Rule for the calls: active = growth percent below 10; inactive = the rest.
Parameter call: string, one of 1 (yes) for active, 0 (no) for inactive

Field: example entries. Status: answers known.
COc1ccc(/C=C2\Oc3cc(OCCCCCN4CCCCC4)ccc3C2=O)cc1OC: 0 (no)
O=C1Nc2cc(-c3ccc(NC(=O)C4CC4)cc3)ccc2/C1=C/c1ccc[nH]1: 0 (no)
COC(=O)CNC(=O)[C@]12CCC(C)(C)C[C@H]1C1=CC[C@@H]3[C@@]4(C)Cc5c([nH]c6ccccc56)C(C)(C)[C@@H]4CC[C@@]3(C)[C@]1(C)CC2: 0 (no)
Oc1ccc(C(c2ccc(O)cc2)c2ccc(Br)cn2)cc1: 0 (no)
Cc1cc2nc3c4cc(C=O)ccc4n(CCN(C)C)c3nc2cc1C: 1 (yes)
CC(c1ccccc1)C(C(=O)c1ccccc1)c1ccccc1 (centres undefined): 0 (no)
O=c1ccc(-c2nc(N3CCOCC3)c3ccccc3n2)c[nH]1: 0 (no)
CCCCCCNC(=O)Nc1ccc2cc3ccc(NC(=O)NCCCCCC)cc3nc2c1: 0 (no)
CCOC(=O)[C@@H]1CCCN(S(=O)(=O)c2ccc(S(=O)(=O)N(CC)CC)c(F)c2)C1: 0 (no)
CCCOC(=O)N[C@H]1CCc2c(Cl)c(OC)c(OC)c(OC)c2-c2ccc(SC)c(=O)cc21: 0 (no)

Ask | Hi, sorry to bother you, what did the test record for CCCCCN1C=C/C(=C\C(=O)N(C)c2ccc(Oc3ccccc3)cc2)c2ccccc21 ?
Reply | 0 (no)

Ask | Now consider O=Cc1cc2ccccc2nc1Oc1ccc(C(F)(F)F)cc1 and answer again.
Reply | 0 (no)

These measurements were taken from PubChem BioAssay (NCI).
